experimentSummary: Oral bioavailability in CD-1 mouse at 10 mg/kg
Assay type: ADME, organism-based
testConditions: in vivo
readoutLabel: bioavailability (%)
The answer is to be given in %; state only the numeric part.

Input: Dear colleague, please send me the reported bioavailability for Cc1cc(Cl)ccc1COc1ccnn1-c1cc(C(=O)O)ccn1 when you can.
Output: 55

---

Let's look at some compounds and their measured EC50.
assaySystem: Lysine-specific demethylase 5A/5B (Homo sapiens, UniProt P29375+Q9UGL1)
experimentSummary: Inhibition of KDM5A/KDM5B in human ZR-75-1 cells assessed as increase in H3K4me3 level after 72 hrs by fluorometric immunoassay
Assay type: cell-based
The answer is to be given in nM; state only the numeric part.

Please review the following examples before continuing.
- O=C(O)c1ccnc(-n2nccc2OCc2ccc(Br)cc2)c1: 860
- COc1cc(Cl)ccc1COc1ccnn1-c1cc(C(=O)O)ccn1: 110
- O=C(O)c1ccnc(-n2nccc2OCc2ccc(Cl)cc2F)c1: 1300

Input: Recall the reported EC50 of O=C(O)c1ccnc(-n2nccc2OCc2ccccc2)c1 on Lysine-specific demethylase 5A/5B (Homo sapiens, UniProt P29375+Q9UGL1) and write it down.
Output: 7000

Input: Recall the reported EC50 of CCc1ccc(COc2ccnn2-c2cc(C(=O)O)ccn2)cc1 on Lysine-specific demethylase 5A/5B (Homo sapiens, UniProt P29375+Q9UGL1) and write it down.
Output: 1300

Input: Recall the reported EC50 of CN(C)CCc1cnn(-c2cc(C(=O)O)ccn2)c1OCc1ccc(F)cc1 on Lysine-specific demethylase 5A/5B (Homo sapiens, UniProt P29375+Q9UGL1) and write it down.
Output: 4600

---

experimentSummary: Clearance in CD-1 mouse at 5 mg/kg, iv
Format: ADME, organism-based
testConditions: in vivo
readoutLabel: clearance (mL/min/kg)
The answer is to be given in mL/min/kg; state only the numeric part.

Input: Dear colleague, please send me the reported clearance for Cc1cc(Cl)ccc1COc1ccnn1-c1cc(C(=O)O)ccn1 when you can.
Output: 2.1

---

assaySystem: Lysine-specific demethylase 2B (Homo sapiens, UniProt Q8NHM5)
Sequence (Q8NHM5 whole entry): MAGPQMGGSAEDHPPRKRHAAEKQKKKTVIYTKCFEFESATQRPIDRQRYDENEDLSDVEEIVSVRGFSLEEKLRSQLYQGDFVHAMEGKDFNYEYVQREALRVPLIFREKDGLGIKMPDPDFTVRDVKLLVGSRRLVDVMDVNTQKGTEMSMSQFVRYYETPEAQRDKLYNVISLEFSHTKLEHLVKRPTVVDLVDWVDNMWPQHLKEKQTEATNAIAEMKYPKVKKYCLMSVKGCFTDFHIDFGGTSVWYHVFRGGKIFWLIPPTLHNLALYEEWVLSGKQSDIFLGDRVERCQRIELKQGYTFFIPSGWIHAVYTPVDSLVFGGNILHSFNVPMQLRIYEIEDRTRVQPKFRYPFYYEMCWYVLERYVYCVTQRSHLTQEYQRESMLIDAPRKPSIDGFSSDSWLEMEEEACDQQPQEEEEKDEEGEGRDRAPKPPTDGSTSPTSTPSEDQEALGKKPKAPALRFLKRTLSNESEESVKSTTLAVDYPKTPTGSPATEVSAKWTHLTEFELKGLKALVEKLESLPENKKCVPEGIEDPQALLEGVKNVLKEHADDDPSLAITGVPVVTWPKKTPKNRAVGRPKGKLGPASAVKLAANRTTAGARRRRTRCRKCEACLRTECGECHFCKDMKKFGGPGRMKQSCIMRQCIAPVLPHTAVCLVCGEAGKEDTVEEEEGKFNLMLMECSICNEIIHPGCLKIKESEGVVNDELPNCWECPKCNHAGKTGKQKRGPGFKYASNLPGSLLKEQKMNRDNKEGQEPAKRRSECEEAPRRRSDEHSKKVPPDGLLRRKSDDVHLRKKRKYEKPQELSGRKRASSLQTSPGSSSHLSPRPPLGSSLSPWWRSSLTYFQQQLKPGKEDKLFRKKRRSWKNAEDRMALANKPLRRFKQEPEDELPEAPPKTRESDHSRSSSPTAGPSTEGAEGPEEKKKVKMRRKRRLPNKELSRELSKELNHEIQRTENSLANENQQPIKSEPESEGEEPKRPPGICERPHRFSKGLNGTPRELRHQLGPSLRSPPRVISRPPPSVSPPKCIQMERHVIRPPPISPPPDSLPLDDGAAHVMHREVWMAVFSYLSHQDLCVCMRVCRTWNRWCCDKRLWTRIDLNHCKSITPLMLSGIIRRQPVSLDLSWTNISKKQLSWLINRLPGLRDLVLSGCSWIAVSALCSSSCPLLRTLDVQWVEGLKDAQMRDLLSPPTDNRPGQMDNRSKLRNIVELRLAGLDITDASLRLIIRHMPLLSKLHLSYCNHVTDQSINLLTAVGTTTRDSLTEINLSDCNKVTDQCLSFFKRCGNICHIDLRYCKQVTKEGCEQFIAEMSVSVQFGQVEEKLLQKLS
readoutLabel: IC50 (nM)
The answer is to be given in nM; state only the numeric part.

Input: Recall the reported IC50 of Cc1cc(Cl)ccc1COc1ccnn1-c1cc(C(=O)O)ccn1 on Lysine-specific demethylase 2B (Homo sapiens, UniProt Q8NHM5) and write it down.
Output: 630
